# targetSystem: Rac GTPase-activating protein 1 (Homo sapiens)
# Sequence (Q9H0H5 whole entry): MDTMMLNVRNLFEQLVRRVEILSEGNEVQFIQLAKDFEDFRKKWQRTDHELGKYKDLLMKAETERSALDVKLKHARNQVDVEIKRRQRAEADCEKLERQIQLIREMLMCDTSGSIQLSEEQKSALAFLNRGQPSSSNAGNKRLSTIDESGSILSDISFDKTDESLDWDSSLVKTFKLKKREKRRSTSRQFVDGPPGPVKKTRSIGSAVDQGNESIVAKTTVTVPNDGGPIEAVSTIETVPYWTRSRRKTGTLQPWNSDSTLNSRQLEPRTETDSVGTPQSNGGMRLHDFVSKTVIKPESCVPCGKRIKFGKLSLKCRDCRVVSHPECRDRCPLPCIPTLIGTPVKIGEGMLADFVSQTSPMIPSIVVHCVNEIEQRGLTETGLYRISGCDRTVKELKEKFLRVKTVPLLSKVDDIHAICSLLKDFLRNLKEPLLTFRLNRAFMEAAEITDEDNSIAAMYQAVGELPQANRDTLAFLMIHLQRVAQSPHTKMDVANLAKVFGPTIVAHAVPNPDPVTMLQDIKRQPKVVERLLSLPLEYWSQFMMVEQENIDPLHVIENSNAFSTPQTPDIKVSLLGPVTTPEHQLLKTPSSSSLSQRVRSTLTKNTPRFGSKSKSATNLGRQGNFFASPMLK
# protocolSummary: blockers of MgcRacGAP-driven Rac1 GTP hydrolysis – biochemical, ADP Hunter fluorescence, primary and confirmatory, confirmation (AID 624330)
# Type: functional
Activity calls are given as the source filed them.
propertyName: IC50

Take a look at these entries with their results.
- compound: "CSc1sccc1/C=C(/C#N)C(=O)c1ccco1"
  IC50: "22.8 µM (active)"
- compound: "CCOC(=O)c1cc(NCc2cccs2)ccc1N1CCOCC1"
  IC50: "93 µM (active)"
- compound: "CCOc1cc(/C=N/NC(=O)c2ccc(NC(=O)C3CC3)cc2)ccc1O"
  IC50: "72.4 µM (active)"
- compound: "CN(C)c1ccc(C=c2c3ccccc3n3c2cc(-c2ccc(Cl)cc2)[n+]3C)cc1"
  IC50: "44.9 µM (active)"
- compound: "N#CC1=C(S)N(c2ccc(F)cc2)C(c2ccco2)NC1=O (configuration not stated)"
  IC50: "84.4 µM (active)"
- compound: "CCc1ccc(CNc2ccc(N3CCN(C(C)=O)CC3)cc2)cc1"
  IC50: "9.44 µM (active)"

Problem: Specify IC50 for CCOC(=O)c1c(N)sc2c(O)c(Br)ccc12 and stop.
Solution: 58.6 µM (active)

====

# targetSystem: Corticotropin-releasing factor receptor 2/Corticotropin-releasing factor-binding protein (Homo sapiens, UniProt P24387+Q13324)
# Sequence (Q13324 whole entry): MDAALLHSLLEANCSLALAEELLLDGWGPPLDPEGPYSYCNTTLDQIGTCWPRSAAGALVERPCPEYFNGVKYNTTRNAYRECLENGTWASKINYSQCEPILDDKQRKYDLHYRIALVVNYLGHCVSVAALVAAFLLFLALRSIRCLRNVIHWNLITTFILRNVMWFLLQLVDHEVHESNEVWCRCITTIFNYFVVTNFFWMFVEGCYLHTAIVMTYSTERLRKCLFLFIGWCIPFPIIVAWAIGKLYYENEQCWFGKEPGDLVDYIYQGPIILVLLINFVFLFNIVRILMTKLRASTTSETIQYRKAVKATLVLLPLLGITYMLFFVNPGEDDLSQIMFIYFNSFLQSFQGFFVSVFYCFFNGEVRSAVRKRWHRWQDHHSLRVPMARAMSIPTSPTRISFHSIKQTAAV
# Sequence (P24387 whole entry): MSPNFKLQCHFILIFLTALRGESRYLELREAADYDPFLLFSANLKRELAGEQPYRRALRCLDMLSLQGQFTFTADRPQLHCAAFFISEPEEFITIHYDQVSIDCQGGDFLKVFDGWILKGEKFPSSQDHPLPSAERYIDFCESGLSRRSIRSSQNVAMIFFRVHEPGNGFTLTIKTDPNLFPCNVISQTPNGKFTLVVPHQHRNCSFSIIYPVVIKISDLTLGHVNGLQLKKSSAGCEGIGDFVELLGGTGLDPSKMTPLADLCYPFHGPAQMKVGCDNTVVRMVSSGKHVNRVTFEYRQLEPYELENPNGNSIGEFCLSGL
# protocolSummary: Dose Response confirmation of uHTS hits for small molecule antagonists of the CRF-binding protein and CRF-R2 receptor complex.
# Type: functional
# recordedConditions: read-out: IC50_Mean
The source made the active and inactive calls.
Respond using exactly one of the listed classes: y (active), n (inactive)

- molecule: "COc1ccc(C2N(Cc3ccccc3)CC(=O)N2/N=C(\\C)c2ccccc2)cc1 (stereo unspecified)"
  assignedLabel: "y"

Problem: Could you check what this test reported for COc1ccccc1OCC(=O)NCC1CCCN(C(=O)c2ccccc2C(C)=O)C1 (stereo unspecified) ?
Solution: n

Problem: Could you check what this test reported for COc1cc(NC(=O)CSc2nc3ccccc3n2-c2ccccc2)c(C)cc1[N+](=O)[O-] ?
Solution: n

The reported numbers originate from ChEMBL document CHEMBL1201862.
